Reported IC50 values for the following compounds.
Tested on: HEK293
Assay: IC50 for inhibition of ZIKV NS1 production
Give just the number in µM; leave the unit off.

[[record]]
compound = "COc1cc([C@@H]2c3cc4c(cc3[C@H](O)[C@H]3COC(=O)[C@@H]23)OCO4)cc(OC)c1OC"
data_value = 2.6

[[record]]
compound = "CN(Cc1cnc2nc(N)nc(N)c2n1)c1ccc(C(=O)N[C@@H](CCC(=O)O)C(=O)O)cc1"
data_value = 0.46

[[record]]
compound = "CC[C@@]1(O)C(=O)OCc2c1cc1n(c2=O)Cc2cc3cc(O)ccc3nc2-1"
data_value = 0.047

[[record]]
compound = "O=C1[C@H](Cc2ccc(O)cc2)N2C(=O)CCN(C(=O)NCc3ccccc3)[C@H]2CN1Cc1cccc2ccccc12"
data_value = 13

[[record]]
compound = "CCc1c2c(nc3ccc(OC(=O)N4CCC(N5CCCCC5)CC4)cc13)-c1cc3c(c(=O)n1C2)COC(=O)[C@]3(O)CC"
data_value = 1.6

[[record]]
compound = "CC(C)COCC(CN(Cc1ccccc1)c1ccccc1)N1CCCC1 (stereo not drawn)"
data_value = 43


Dear colleague, I am looking for the recorded IC50 of the following compound: OCCCNc1cc(-c2ccnc(Nc3cccc(Cl)c3)n2)ccn1
0.79

Same question for C[C@H]1O[C@@H](O[C@H]2[C@@H](O)C[C@H](O[C@H]3[C@@H](O)C[C@H](O[C@H]4CC[C@@]5(C)[C@H](CC[C@@H]6[C@@H]5C[C@@H](O)[C@]5(C)[C@@H](C7=CC(=O)OC7)CC[C@]65O)C4)O[C@@H]3C)O[C@@H]2C)C[C@H](O)[C@@H]1O please.
0.15

Now give it for CC(C)[C@]12O[C@H]1[C@@H]1O[C@]13[C@]1(O[C@H]1C[C@H]1C4=C(CC[C@@]13C)C(=O)OC4)[C@@H]2O too.
0.47

----------
Test system: HEK293
Test: cytotoxicity IC50 (ATP content, uninfected cells); higher = less cytotoxic
Conditions: infection: none
measured endpoint: cytotoxicity IC50 (µM)
Just the number please, in µM, no unit attached.

Find the recorded cytotoxicity IC50 belonging to Cc1ccc(NC(=O)c2ccc(CN3CCN(C)CC3)cc2)cc1Nc1nccc(-c2cccnc2)n1 and report it.
41

Then C=C1C(=O)O[C@H]2[C@H]1CC/C(C)=C/CC[C@@]1(C)O[C@@H]21 ?
20

Continue with Cc1cc2c(F)c(Oc3ncnn4cc(OC[C@@H](C)O)c(C)c34)ccc2[nH]1
1.4

// next record CC(C)n1nc(-c2cc3cc(O)ccc3[nH]2)c2c(N)ncnc21
77

Next compound up: CCCCCC(=O)O[C@]1(C(C)=O)CC[C@H]2[C@@H]3CCC4=CC(=O)CC[C@]4(C)[C@H]3CC[C@@]21C
7.9

// next record CNc1ccc2oc(C[C@H]3O[C@@]4(CC[C@H]3C)O[C@H]([C@H](C)C(=O)c3ccc[nH]3)[C@H](C)C[C@H]4C)nc2c1C(=O)O
20

Next entry: C[C@]12O[C@H](C[C@]1(O)CO)n1c3ccccc3c3c4c(c5c6ccccc6n2c5c31)CNC4=O
15

Quick one: CCOC(=O)C1(c2ccccc2)CCN(CCC(C#N)(c2ccccc2)c2ccccc2)CC1
9.2
